- Settings: in n-pentyl acetate, 318.15 K
Observed property: solubility (mole fraction)
# respond with the number and nothing more

Given item CCCCN(CCCC)CC(O)c1cc(Cl)cc2c1-c1ccc(Cl)cc1/C2=C/c1ccc(Cl)cc1 (stereo unspecified) , the value recorded as its solubility (mole fraction) is 0.0327

* * *

- Settings: in methanol, 288.15 K
Observed property: solubility (mole fraction)
In your answer, state the number alone without any accompanying words.

compound CCCCN(CCCC)CC(O)c1cc(Cl)cc2c1-c1ccc(Cl)cc1/C2=C/c1ccc(Cl)cc1 (stereo unspecified) , solubility (mole fraction) observed: 2.28e-05

* * *

- Settings: in methanol, 278.15 K
Observed property: solubility (mole fraction)
// keep it numeric: no unit symbol after the value

solubility (mole fraction) recorded for this molecule, CCCCN(CCCC)CC(O)c1cc(Cl)cc2c1-c1ccc(Cl)cc1/C2=C/c1ccc(Cl)cc1 (stereo unspecified) , is 1.34e-05

* * *

- Settings: in n-pentyl acetate, 323.15 K
Observed property: solubility (mole fraction)
Would you mind answering with just the numeric figure?

# compound CCCCN(CCCC)CC(O)c1cc(Cl)cc2c1-c1ccc(Cl)cc1/C2=C/c1ccc(Cl)cc1 (stereo unspecified) ; its solubility (mole fraction) = 0.0407

* * *

- Settings: in n-pentyl acetate, 283.15 K
Observed property: solubility (mole fraction)
Answer as a number with no unit attached.

Entry CCCCN(CCCC)CC(O)c1cc(Cl)cc2c1-c1ccc(Cl)cc1/C2=C/c1ccc(Cl)cc1 (stereo unspecified) , solubility (mole fraction) reported as 0.00656

* * *

- Settings: in n-pentyl acetate, 298.15 K
Observed property: solubility (mole fraction)
Please give only the number in your answer, with no unit.

Notebook: CCCCN(CCCC)CC(O)c1cc(Cl)cc2c1-c1ccc(Cl)cc1/C2=C/c1ccc(Cl)cc1 (stereo unspecified) , solubility (mole fraction) read as 0.0137

* * *

- Settings: in ethyl acetate, 323.15 K
Observed property: solubility (mole fraction)
Write no unit; give the number alone.

// recorded solubility (mole fraction) for CCCCN(CCCC)CC(O)c1cc(Cl)cc2c1-c1ccc(Cl)cc1/C2=C/c1ccc(Cl)cc1 (stereo unspecified) : 0.0201

* * *

- Settings: in n-butyl acetate, 318.15 K
Observed property: solubility (mole fraction)
// response body must contain only the number

GET /value?item= CCCCN(CCCC)CC(O)c1cc(Cl)cc2c1-c1ccc(Cl)cc1/C2=C/c1ccc(Cl)cc1 (stereo unspecified) &field=solubility (mole fraction) returns 0.0286

* * *

- Settings: in n-butyl acetate, 303.15 K
Observed property: solubility (mole fraction)
API note: the answer field is a bare number with no unit suffix.

Memo: CCCCN(CCCC)CC(O)c1cc(Cl)cc2c1-c1ccc(Cl)cc1/C2=C/c1ccc(Cl)cc1 (stereo unspecified) , reported solubility (mole fraction): 0.0138

* * *

- Settings: in n-butyl acetate, 288.15 K
Observed property: solubility (mole fraction)
Keep the answer to the number alone.

solubility (mole fraction) reading for CCCCN(CCCC)CC(O)c1cc(Cl)cc2c1-c1ccc(Cl)cc1/C2=C/c1ccc(Cl)cc1 (stereo unspecified) : 0.00674

* * *

- Settings: in n-propyl acetate, 303.15 K
Observed property: solubility (mole fraction)
Write no unit; give the number alone.

Summary for this compound, CCCCN(CCCC)CC(O)c1cc(Cl)cc2c1-c1ccc(Cl)cc1/C2=C/c1ccc(Cl)cc1 (stereo unspecified) : solubility (mole fraction) is 0.0109

* * *

- Settings: in methanol, 308.15 K
Observed property: solubility (mole fraction)
Could you keep your reply to the number by itself?

Entry CCCCN(CCCC)CC(O)c1cc(Cl)cc2c1-c1ccc(Cl)cc1/C2=C/c1ccc(Cl)cc1 (stereo unspecified) , solubility (mole fraction) reported as 6.3e-05

* * *

- Settings: in methanol, 283.15 K
Observed property: solubility (mole fraction)
Simply state the number, no unit and no words.

The measured solubility (mole fraction) associated with CCCCN(CCCC)CC(O)c1cc(Cl)cc2c1-c1ccc(Cl)cc1/C2=C/c1ccc(Cl)cc1 (stereo unspecified) reads 1.7e-05

* * *

- Settings: in n-pentyl acetate, 308.15 K
Observed property: solubility (mole fraction)
Give the value as a plain number.

compound CCCCN(CCCC)CC(O)c1cc(Cl)cc2c1-c1ccc(Cl)cc1/C2=C/c1ccc(Cl)cc1 (stereo unspecified) , solubility (mole fraction) observed: 0.0212

* * *

- Settings: in n-propyl acetate, 283.15 K
Observed property: solubility (mole fraction)
Lab note: write the figure by itself, no unit.

# compound CCCCN(CCCC)CC(O)c1cc(Cl)cc2c1-c1ccc(Cl)cc1/C2=C/c1ccc(Cl)cc1 (stereo unspecified) ; its solubility (mole fraction) = 0.00366

* * *

- Settings: in n-pentyl acetate, 303.15 K
Observed property: solubility (mole fraction)
Just the number, please, no unit attached.

Looking up CCCCN(CCCC)CC(O)c1cc(Cl)cc2c1-c1ccc(Cl)cc1/C2=C/c1ccc(Cl)cc1 (stereo unspecified) , I see its solubility (mole fraction) listed as 0.0168

* * *

- Settings: in ethyl acetate, 288.15 K
Observed property: solubility (mole fraction)

CCCCN(CCCC)CC(O)c1cc(Cl)cc2c1-c1ccc(Cl)cc1/C2=C/c1ccc(Cl)cc1 (stereo unspecified) yielded solubility (mole fraction) of 0.00317

* * *

- Settings: in n-butyl acetate, 278.15 K
Observed property: solubility (mole fraction)

For reference, reported solubility (mole fraction) for CCCCN(CCCC)CC(O)c1cc(Cl)cc2c1-c1ccc(Cl)cc1/C2=C/c1ccc(Cl)cc1 (stereo unspecified) stands at 0.00425

* * *

- Settings: in methanol, 318.15 K
Observed property: solubility (mole fraction)
// return just the number, without any unit appended

solubility (mole fraction) measured on CCCCN(CCCC)CC(O)c1cc(Cl)cc2c1-c1ccc(Cl)cc1/C2=C/c1ccc(Cl)cc1 (stereo unspecified) = 0.000106

* * *

- Settings: in n-butyl acetate, 298.15 K
Observed property: solubility (mole fraction)
# print the numeric value only

In plain terms, CCCCN(CCCC)CC(O)c1cc(Cl)cc2c1-c1ccc(Cl)cc1/C2=C/c1ccc(Cl)cc1 (stereo unspecified) has a documented solubility (mole fraction) of 0.0108

* * *

- Settings: in n-pentyl acetate, 293.15 K
Observed property: solubility (mole fraction)
Keep it simple and answer with nothing but the number.

The compound listed as CCCCN(CCCC)CC(O)c1cc(Cl)cc2c1-c1ccc(Cl)cc1/C2=C/c1ccc(Cl)cc1 (stereo unspecified) has a reported solubility (mole fraction) of 0.011

* * *

- Settings: in methanol, 293.15 K
Observed property: solubility (mole fraction)

Data point: CCCCN(CCCC)CC(O)c1cc(Cl)cc2c1-c1ccc(Cl)cc1/C2=C/c1ccc(Cl)cc1 (stereo unspecified) ; solubility (mole fraction) = 3.04e-05

* * *

- Settings: in ethyl acetate, 318.15 K
Observed property: solubility (mole fraction)
Provide a numeric answer; units are not to be included.

Entry CCCCN(CCCC)CC(O)c1cc(Cl)cc2c1-c1ccc(Cl)cc1/C2=C/c1ccc(Cl)cc1 (stereo unspecified) — recorded solubility (mole fraction) = 0.0152

* * *

- Settings: in ethyl acetate, 293.15 K
Observed property: solubility (mole fraction)
Give the figure only, with no unit attached.

Briefly, solubility (mole fraction) measured for CCCCN(CCCC)CC(O)c1cc(Cl)cc2c1-c1ccc(Cl)cc1/C2=C/c1ccc(Cl)cc1 (stereo unspecified) : 0.00411

* * *

- Settings: in methanol, 313.15 K
Observed property: solubility (mole fraction)
Number only, no unit.

Memo: CCCCN(CCCC)CC(O)c1cc(Cl)cc2c1-c1ccc(Cl)cc1/C2=C/c1ccc(Cl)cc1 (stereo unspecified) , reported solubility (mole fraction): 8.2e-05

* * *

- Settings: in ethyl acetate, 313.15 K
Observed property: solubility (mole fraction)
Answer field: number only, no words.

Measured solubility (mole fraction), CCCCN(CCCC)CC(O)c1cc(Cl)cc2c1-c1ccc(Cl)cc1/C2=C/c1ccc(Cl)cc1 (stereo unspecified) : 0.0116

* * *

- Settings: in n-butyl acetate, 293.15 K
Observed property: solubility (mole fraction)

Record CCCCN(CCCC)CC(O)c1cc(Cl)cc2c1-c1ccc(Cl)cc1/C2=C/c1ccc(Cl)cc1 (stereo unspecified) , field solubility (mole fraction): 0.00866

* * *

- Settings: in methanol, 298.15 K
Observed property: solubility (mole fraction)
Write the value as a bare number.

Record CCCCN(CCCC)CC(O)c1cc(Cl)cc2c1-c1ccc(Cl)cc1/C2=C/c1ccc(Cl)cc1 (stereo unspecified) . Reported solubility (mole fraction): 3.82e-05

* * *

- Settings: in n-butyl acetate, 308.15 K
Observed property: solubility (mole fraction)
Hey, just send me the number, nothing else.

For CCCCN(CCCC)CC(O)c1cc(Cl)cc2c1-c1ccc(Cl)cc1/C2=C/c1ccc(Cl)cc1 (stereo unspecified) the compound record lists solubility (mole fraction) as 0.0176

meta.source: BigSolDB 2.1
